system: MALME-3M melanoma; experiment: NCI tumour cell line growth inhibition, 48 h
Task for the reader: assign each of the following compounds its reported TGI.

IN: Can you look up the measured TGI of CCOC(=O)c1csc(NC(=O)CCN2CCCCC2)n1 for me?
OUT: > 100 µM

IN: Another compound to check: COc1ccc(C(=O)c2ccc(OC)c(OC)c2OC)cc1
OUT: > 100 µM

IN: Another compound to check: O=C(CC1(O)C(=O)Nc2ccccc21)c1ccccc1Cl (stereo not drawn)
OUT: > 100 µM

* * *

test system: NCI-H226 lung; experiment: NCI tumour cell line growth inhibition, 48 h
Where a SMILES comes first, the peptide text is derived from it. [ ]: non-standard residue; d: D form. The star is where a group is joined. AllylGly = C=CC[CH](N)C(=O)O; Boc = CC(C)(C)OC(=O)*; OtBu = CC(C)(C)O*
reported.metric: TGI

IN: Give recorded TGI with NCI-H226 lung for the following molecule: O=C(CC(=O)N1N=C(N2CCCCC2)CC1c1ccccc1)Nc1ccc(Cl)cc1 (stereo unspecified)
OUT: > 100 µM

IN: Another molecule to check: Cc1cc2c(=O)n(-c3ccc(F)cc3)c(C)nc2c(C(=O)O)c1C
OUT: > 100 µM

IN: Another molecule to check: N#CCCN(CCC#N)c1ccc(C(N=Nc2ccccc2)=Nc2ccccc2)cc1
OUT: > 100 µM

IN: Another molecule to check: CCc1n[nH]c(=O)n1/N=C/c1ccccc1Cl
OUT: > 100 µM

IN: Another molecule to check: CCNCC(=O)O[C@]1(CC)C(=O)OCc2c1cc1n(c2=O)Cc2cc3ccccc3nc2-1
OUT: 1.29 µM

IN: Another molecule to check: COc1ccc(C2C3C(=O)C=CC(=O)C3[C@@H]2C)cc1OC (stereo partly specified)
OUT: > 100 µM

IN: Another molecule to check: C[C@]12CCC[C@H](Cl)C1(O)C[C@H](C(=O)O)CC2 (stereo partly specified)
OUT: > 100 µM

IN: Another molecule to check: CCOC(=O)c1c(C)c2c(n1C)CCc1cn[nH]c1-2
OUT: > 100 µM

IN: Another molecule to check: COc1cc(C2C(Cl)C(=O)N2NC(=O)c2ccccc2O)ccc1O (stereo unspecified)
OUT: > 100 µM

IN: Another molecule to check: CN(C)c1ccc(/C=C(\C#N)C(N)=C(C#N)C#N)cc1
OUT: > 100 µM

IN: Another molecule to check: COc1ccc(/C(Cl)=C(\C=O)c2ccc([N+](=O)[O-])cc2)cc1OC
OUT: > 54.8 µM

IN: Another molecule to check: COC(=O)C1=C(C(=O)OC)C2(OC(C)=O)c3ccccc3-c3ccccc3C12 (stereo unspecified)
OUT: 31.2 µM

IN: Another molecule to check: CCCN(CCCC(NC(C)=O)C(=O)NCc1ccccc1)C(=O)NC (stereo unspecified)
OUT: > 100 µM

IN: Another molecule to check: COC(=O)C(CCCC1(c2ccccc2)OCCO1)C(C)=O (stereo unspecified)
OUT: > 100 µM

IN: Another molecule to check: O=c1[nH]c(Nc2cccc(C(F)(F)F)c2)nc2nc[nH]c12
OUT: > 100 µM

IN: Another molecule to check: N#Cc1c(-c2ccc(Cl)cc2)n(O)c2ccccc12
OUT: 12 µM

IN: Another molecule to check: CC(=O)OC1CC(n2cc(F)c(=O)[nH]c2=O)OC1CO (stereo unspecified)
OUT: > 100 µM

IN: Another molecule to check: C=CCC(NC(=O)C(CC(=O)OC(C)(C)C)NC(=O)OC(C)(C)C)C(=O)OC (stereo unspecified) (Boc-Asp(OtBu)-[AllylGly]-OMe; configuration not given here)
OUT: > 100 µM

IN: Another molecule to check: CCCCCCCC/C=C/CCCCCCCC1=NCC[N+]1(CCO)CCO
OUT: 19.8 µM

IN: Another molecule to check: NC(=O)C1=NNc2ccccc2C(=O)N1c1ccccc1
OUT: > 100 µM

IN: Another molecule to check: CC(=O)C(=[N+]=[N-])C(=O)OC(C)(C)C#N
OUT: > 10 µM

* * *

Task for the reader: assign each of the following molecules its reported TGI.
tested on: K-562 leukemia; assay: NCI tumour cell line growth inhibition, 48 h

IN: Can you look up the measured TGI of Cc1ccc(-c2c(C#N)c(S)n(NS(=O)(=O)c3ccc(C)cc3)c(=O)c2C#N)cc1 for me?
OUT: > 100 µM

IN: Another molecule to check: Cc1cccc(Oc2nccc(-c3c(-c4ccc(F)cc4)ncn3C3CCNCC3)n2)c1C
OUT: 16 µM

IN: Another molecule to check: OC12COc3ccccc3C1Oc1ccccc1C2 (stereo unspecified)
OUT: > 100 µM

IN: Another molecule to check: O=[N+]([O-])c1ccc(-c2nc(-c3ccccc3)c(-c3ccccc3)n2-c2ccccc2)cc1
OUT: 95.9 µM

IN: Another molecule to check: CCCCC(C)C1CCC2(C)C=CC(=O)C(C)=C2C1O (stereo unspecified)
OUT: > 100 µM

IN: Another molecule to check: O=C1C(/C=C/c2ccc(Cl)cc2)=NNC2N1N=C1NC(=O)C3(NN12)c1ccccc1-c1ccccc13 (stereo unspecified)
OUT: > 100 µM

IN: Another molecule to check: COc1cc(-c2oc3c(OC)c(O)c(OC)c(O)c3c(=O)c2OC)cc(O)c1OC
OUT: > 100 µM

IN: Another molecule to check: COc1cc2c(cc1OC)-c1cc3cc(OC)c(OC)cc3n1CC2
OUT: > 100 µM

IN: Another molecule to check: C(=C\c1n(Cc2ccc3ccccc3c2)c(-c2ccccc2)c(-c2ccccc2)[n+]1Cc1ccc2ccccc2c1)/c1ccccc1
OUT: 5 µM

IN: Another molecule to check: Cc1cc(N(CCC#N)S(C)(=O)=O)ccc1C=O
OUT: > 100 µM

IN: Another molecule to check: O=P(Oc1ccccc1)(Oc1ccccc1)Oc1c[nH]c2ccccc12
OUT: 36.5 µM

IN: Another molecule to check: Cc1ccc(NC(=O)NC(=O)c2ccc([N+](=O)[O-])cc2[N+](=O)[O-])cc1Oc1ncc(Cl)cn1
OUT: > 37.4 µM

IN: Another molecule to check: CC(=O)OCC1OC(n2c3c(c(-c4ccco4)c(C#N)c2=S)CCC3)C(OC(C)=O)C(OC(C)=O)C1OC(C)=O (stereo unspecified)
OUT: > 100 µM

IN: Another molecule to check: Cn1c(=O)cc(NCc2ccc(Cl)cc2)[nH]c1=O
OUT: > 100 µM

IN: Another molecule to check: CCCCCCCCCCCCCCCCCC1=NCCN1CS(=O)(=O)O
OUT: > 100 µM

IN: Another molecule to check: O=c1[nH]c(Nc2cccc(C(F)(F)F)c2)nc2nc[nH]c12
OUT: > 100 µM

IN: Another molecule to check: O=C/C(=C(/Br)I)c1ccccc1
OUT: 3.85 µM

IN: Another molecule to check: O=c1[nH]c(=O)n(C2CC(O)C(CO)O2)cc1OCCCc1ccccc1 (stereo unspecified)
OUT: > 100 µM

IN: Another molecule to check: COc1cccc(C2C(C#N)=C(N)Oc3cc(N)ccc32)c1 (stereo unspecified)
OUT: > 100 µM

IN: Another molecule to check: Cc1nc2sccn2c(=O)c1CCN1CCC(=C(c2ccc(F)cc2)c2ccc(F)cc2)CC1
OUT: 26.2 µM

IN: Another molecule to check: CCOC(=O)C(=O)Nc1c(F)cc(F)cc1Br
OUT: > 100 µM

* * *

tested on: OVCAR-8 ovarian; experiment: NCI tumour cell line growth inhibition, 48 h
Respond with label 1 for TGI values of 3 µM and above, label 0 for values below.

IN: # bool: TGI of CN1CCCNc2c(c(=O)c2=O)NCCCN(C)CCCNc2c(c(=O)c2=O)NCCCN(C)CCCNc2c(c(=O)c2=O)NCCCN(C)CCCNc2c(c(=O)c2=O)NCCCN(C)CCCNc2c(c(=O)c2=O)NCCCN(C)CCCNc2c(c(=O)c2=O)NCCCN(C)CCCNc2c(c(=O)c2=O)NCCC1 >= 3 µM
OUT: label 1

IN: Another compound to check: O=[N+]([O-])c1cccc2nc3ccccc3c(NCCc3cccc[n+]3[O-])c12
OUT: label 0

IN: Another compound to check: Nc1nc(SCCNC(=O)CCc2ccc(O)cc2)nc2c1ncn2C1OC(CO)C(O)C1O (configuration not stated)
OUT: label 1

IN: Another compound to check: COC(=O)C(CCCC1(c2ccccc2)OCCO1)C(C)=O (configuration not stated)
OUT: label 1

IN: Another compound to check: CC(=O)Nc1ccc(Sc2ccc([N+](=O)[O-])o2)cc1
OUT: label 1

IN: Another compound to check: CCC[CH2][Sn]([CH2]CCC)([O]C(=O)c1cc(F)cc(F)c1)[O]C(=O)c1cc(F)cc(F)c1
OUT: label 0

IN: Another compound to check: COc1ccc(C2=NNC(=O)OC2c2ccccc2)cc1 (configuration not stated)
OUT: label 1

IN: Another compound to check: O=c1[nH]c(=O)n(C2CC(O)C(CO)O2)cc1OCCCc1ccccc1 (configuration not stated)
OUT: label 1

IN: Another compound to check: Cc1cc(C)nc(NS(=O)(=O)c2ccc(Nc3c4ccccc4nc4c(C(=O)NCCCN(CCO)CCO)cccc34)cc2)n1
OUT: label 1

IN: Another compound to check: O=C1CCC[C@]2(CCC[C@@H](O)C2)N1
OUT: label 1

IN: Another compound to check: CCCc1c(OC)c(=O)c2c(OC)cc(OC)c3c4c(OC)cc(OC)c5c(=O)c(OC)c(CCC)c(c1c23)c54
OUT: label 1

IN: Another compound to check: Brc1ccc(-c2nnc(-c3nn(-c4ccccc4)c4nc5ccccc5nc34)o2)cc1
OUT: label 1
